Every entry's value here was drawn from ChEMBL document CHEMBL2396650.

test system: Rattus norvegicus; test: AUC (0 to t) in Sprague-Dawley rat at 25 mg/kg, po; assay type: ADME, organism-based, Plasma; design: dose 25 mg/kg, route oral; details: in vivo
reported property: AUCt (µg·h/mL)
Give the value, in units of µg·h/mL, as a plain number.

[[record]]
chem_smiles = "CC(C)(C)C[C@@H]1N[C@@H](C(=O)NCC[C@H](O)CO)[C@H](c2cccc(Cl)c2F)[C@]12C(=O)Nc1cc(Cl)ccc12"
value = 2.14


Continue with the next molecule.
Query block: // returns reported AUCt for input CC(C)(C)C[C@@H]1N[C@@H](C(=O)N[C@H]2C[C@@](C)(O)C2)[C@H](c2cccc(Cl)c2F)[C@]12C(=O)Nc1cc(Cl)ccc12
Result block: 14.9
